Where do the numbers come from? From ChEMBL document CHEMBL5042514.

Each record here notes measured selectivity ratio.
procedure-text: Selectivity ratio of IC50 for phototoxicity against human NHDF cells upon LED light irradiation to IC50 for phototoxicity against human PC-3 cells upon LED light irradiation
Format: toxicity, cell-based
experimental-context: NHDF cells versus PC-3 cells, read-out: Ratio IC50
I'd appreciate a reply containing only the number, no unit.

Example cases with answers are listed next.
chemical-smiles | experimental-readout | data-value
CCCCCCN1/C(=C/C2=C(N(Cc3ccccn3)Cc3ccccn3)C(=C/C3=[N+](CCCCCC)c4ccc5ccccc5c4C3(C)C)/C2=O)C(C)(C)c2c1ccc1ccccc21.[I-] | selectivity ratio | 0.72
CCCCCCN1/C(=C/C2=C(NCc3ccccn3)C(=C/C3=[N+](CCCCCC)c4ccc5ccccc5c4C3(C)C)/C2=O)C(C)(C)c2c1ccc1ccccc21.[I-] | selectivity ratio | 0.84
CCN1/C(=C/C2=C([O-])C(=C/C3=[N+](CC)c4ccc5ccccc5c4C3(C)C)/C2=O)C(C)(C)c2c1ccc1ccccc21 | selectivity ratio | 1.17

Attention now shifts to the item below.
Please give the measured selectivity ratio for this molecule: `CCN1/C(=C/C2=C(NCc3ccccn3)C(=C/C3=[N+](CC)c4ccc5ccccc5c4C3(C)C)/C2=O)C(C)(C)c2c1ccc1ccccc21.[I-]`
3.02

====

procedure-text: Selectivity ratio of IC50 for phototoxicity against human NHDF cells upon LED light irradiation to IC50 for phototoxicity against human Caco-2 cells upon LED light irradiation
Assay type: toxicity, cell-based
experimental-context: NHDF cells versus Caco-2 cells, read-out: Ratio IC50
experimental-readout: selectivity ratio
Form field (numeric): enter value without unit.

Sample answers from the record:
chemical-smiles | selectivity ratio
CCCCCCN1/C(=C/C2=C(N(Cc3ccccn3)Cc3ccccn3)C(=C/C3=[N+](CCCCCC)c4ccc5ccccc5c4C3(C)C)/C2=O)C(C)(C)c2c1ccc1ccccc21.[I-] | 0.33
CCN1/C(=C/C2=C([O-])C(=C/C3=[N+](CC)c4ccc5ccccc5c4C3(C)C)/C2=O)C(C)(C)c2c1ccc1ccccc21 | 0.67
CCN1/C(=C/C2=C(NCc3ccccn3)C(=C/C3=[N+](CC)c4ccc5ccccc5c4C3(C)C)/C2=O)C(C)(C)c2c1ccc1ccccc21.[I-] | 2.86
CCCCCCN1/C(=C/C2=C(NCc3ccccn3)C(=C/C3=[N+](CCCCCC)c4ccc5ccccc5c4C3(C)C)/C2=O)C(C)(C)c2c1ccc1ccccc21.[I-] | 0.26

What value of selectivity ratio has been recorded for this entry: `CCN1/C(=C/C2=C(N(Cc3ccccn3)Cc3ccccn3)C(=C/C3=[N+](CC)c4ccc5ccccc5c4C3(C)C)/C2=O)C(C)(C)c2c1ccc1ccccc21.[I-]`
2

====

procedure-text: Phototoxicity ratio of IC50 for cytotoxicity against human Caco-2 cells assessed as reduction in cell viability in dark to IC50 for phototoxicity against human Caco-2 cells upon LED light irradiation
Assay type: toxicity, cell-based
Measured Ratio IC50 of individual entries
Lab note: record the figure alone, no unit after it.

Some solved cases for reference:
chemical-smiles | Ratio IC50
CCN1/C(=C/C2=C(NCc3ccccn3)C(=C/C3=[N+](CC)c4ccc5ccccc5c4C3(C)C)/C2=O)C(C)(C)c2c1ccc1ccccc21.[I-] | 21.9
CCCCCCN1/C(=C/C2=C(N(Cc3ccccn3)Cc3ccccn3)C(=C/C3=[N+](CCCCCC)c4ccc5ccccc5c4C3(C)C)/C2=O)C(C)(C)c2c1ccc1ccccc21.[I-] | 1.2

Turning now to a further record.
# Ratio IC50 lookup, item `CCN1/C(=C/C2=C(N(Cc3ccccn3)Cc3ccccn3)C(=C/C3=[N+](CC)c4ccc5ccccc5c4C3(C)C)/C2=O)C(C)(C)c2c1ccc1ccccc21.[I-]`
3.6

====

procedure-text: Phototoxicity ratio of IC50 for cytotoxicity against human MCF7 cells assessed as reduction in cell viability in dark to IC50 for phototoxicity against human MCF7 cells upon LED light irradiation
Type: toxicity, cell-based
experimental-readout: Ratio IC50
No unit in the answer, please; the number alone is enough.

chemical-smiles | Ratio IC50
CCN1/C(=C/C2=C(N(Cc3ccccn3)Cc3ccccn3)C(=C/C3=[N+](CC)c4ccc5ccccc5c4C3(C)C)/C2=O)C(C)(C)c2c1ccc1ccccc21.[I-] | 3.6
CCN1/C(=C/C2=C(NCc3ccccn3)C(=C/C3=[N+](CC)c4ccc5ccccc5c4C3(C)C)/C2=O)C(C)(C)c2c1ccc1ccccc21.[I-] | 9.8

// lookup Ratio IC50 for `CCCCCCN1/C(=C/C2=C(NCc3ccccn3)C(=C/C3=[N+](CCCCCC)c4ccc5ccccc5c4C3(C)C)/C2=O)C(C)(C)c2c1ccc1ccccc21.[I-]`
1.4

Ratio IC50 lookup needed for `CCCCCCN1/C(=C/C2=C(N(Cc3ccccn3)Cc3ccccn3)C(=C/C3=[N+](CCCCCC)c4ccc5ccccc5c4C3(C)C)/C2=O)C(C)(C)c2c1ccc1ccccc21.[I-]` , thanks.
1.3

====

Reported IC50 at 24 h values are given for each entry in this list.
procedure-text: Dark toxicity against human HeLa cells assessed as reduction in cell viability incubated for 24 hrs by MTT assay
Assay type: cell-based
# value in µM; strip the unit string

Query: IC50 at 24 h; subject: `CCCCCCN1/C(=C/C2=C(NCc3ccccn3)C(=C/C3=[N+](CCCCCC)c4ccc5ccccc5c4C3(C)C)/C2=O)C(C)(C)c2c1ccc1ccccc21.[I-]`
4.79

Which value of IC50 at 24 h has been reported for `CCCCCCN1/C(=C/C2=C(N(Cc3ccccn3)Cc3ccccn3)C(=C/C3=[N+](CCCCCC)c4ccc5ccccc5c4C3(C)C)/C2=O)C(C)(C)c2c1ccc1ccccc21.[I-]` in the records?
1.74

Quick one: IC50 at 24 h for `CCN1/C(=C/C2=C(N(Cc3ccccn3)Cc3ccccn3)C(=C/C3=[N+](CC)c4ccc5ccccc5c4C3(C)C)/C2=O)C(C)(C)c2c1ccc1ccccc21.[I-]` ?
0.449

Which value of IC50 at 24 h has been reported for `CCN1/C(=C/C2=C(NCc3ccccn3)C(=C/C3=[N+](CC)c4ccc5ccccc5c4C3(C)C)/C2=O)C(C)(C)c2c1ccc1ccccc21.[I-]` in the records?
2.18

====

Below, each entry is listed with its recorded selectivity ratio.
procedure-text: Phototoxicity ratio of IC50 for cytotoxicity against human NHDF cells assessed as reduction in cell viability in dark to IC50 for phototoxicity against human NHDF cells upon LED light irradiation
Format: toxicity, cell-based
experimental-context: read-out: Ratio IC50
// no unit, no text: just the number

Some entries whose results are on file:
chemical-smiles | selectivity ratio
CCN1/C(=C/C2=C(NCc3ccccn3)C(=C/C3=[N+](CC)c4ccc5ccccc5c4C3(C)C)/C2=O)C(C)(C)c2c1ccc1ccccc21.[I-] | 8.1
CCN1/C(=C/C2=C(N(Cc3ccccn3)Cc3ccccn3)C(=C/C3=[N+](CC)c4ccc5ccccc5c4C3(C)C)/C2=O)C(C)(C)c2c1ccc1ccccc21.[I-] | 2.6
CCCCCCN1/C(=C/C2=C(N(Cc3ccccn3)Cc3ccccn3)C(=C/C3=[N+](CCCCCC)c4ccc5ccccc5c4C3(C)C)/C2=O)C(C)(C)c2c1ccc1ccccc21.[I-] | 1.4

We now examine a further molecule.
GET /values?readout=selectivity ratio&item= `CCCCCCN1/C(=C/C2=C(NCc3ccccn3)C(=C/C3=[N+](CCCCCC)c4ccc5ccccc5c4C3(C)C)/C2=O)C(C)(C)c2c1ccc1ccccc21.[I-]`
3.4

====

procedure-text: Dark toxicity against human NHDF cells assessed as reduction in cell viability incubated for 24 hrs by MTT assay
Type: cell-based
experimental-readout: IC50 at 24 h

chemical-smiles | data-value
CCCCCCN1/C(=C/C2=C(N(Cc3ccccn3)Cc3ccccn3)C(=C/C3=[N+](CCCCCC)c4ccc5ccccc5c4C3(C)C)/C2=O)C(C)(C)c2c1ccc1ccccc21.[I-] | 1010 nM
CCCCCCN1/C(=C/C2=C(NCc3ccccn3)C(=C/C3=[N+](CCCCCC)c4ccc5ccccc5c4C3(C)C)/C2=O)C(C)(C)c2c1ccc1ccccc21.[I-] | 4300 nM
CCN1/C(=C/C2=C([O-])C(=C/C3=[N+](CC)c4ccc5ccccc5c4C3(C)C)/C2=O)C(C)(C)c2c1ccc1ccccc21 | > 10000 nM
CCN1/C(=C/C2=C(NCc3ccccn3)C(=C/C3=[N+](CC)c4ccc5ccccc5c4C3(C)C)/C2=O)C(C)(C)c2c1ccc1ccccc21.[I-] | 2130 nM

API: the following record is the query input.
// IC50 at 24 h lookup, key: `CCN1/C(=C/C2=C(N(Cc3ccccn3)Cc3ccccn3)C(=C/C3=[N+](CC)c4ccc5ccccc5c4C3(C)C)/C2=O)C(C)(C)c2c1ccc1ccccc21.[I-]`
484 nM

====

// IC50 at 24 h lookup, one value per entry
procedure-text: Dark toxicity against human PC-3 cells assessed as reduction in cell viability incubated for 24 hrs by MTT assay
Assay type: cell-based

chemical-smiles | IC50 at 24 h
CCN1/C(=C/C2=C([O-])C(=C/C3=[N+](CC)c4ccc5ccccc5c4C3(C)C)/C2=O)C(C)(C)c2c1ccc1ccccc21 | > 10000 nM
CCN1/C(=C/C2=C(N(Cc3ccccn3)Cc3ccccn3)C(=C/C3=[N+](CC)c4ccc5ccccc5c4C3(C)C)/C2=O)C(C)(C)c2c1ccc1ccccc21.[I-] | 393 nM
CCCCCCN1/C(=C/C2=C(NCc3ccccn3)C(=C/C3=[N+](CCCCCC)c4ccc5ccccc5c4C3(C)C)/C2=O)C(C)(C)c2c1ccc1ccccc21.[I-] | 6690 nM
CCN1/C(=C/C2=C(NCc3ccccn3)C(=C/C3=[N+](CC)c4ccc5ccccc5c4C3(C)C)/C2=O)C(C)(C)c2c1ccc1ccccc21.[I-] | 2070 nM

Alright, here's another compound for you.
What value of measured IC50 at 24 h is listed for `CCCCCCN1/C(=C/C2=C(N(Cc3ccccn3)Cc3ccccn3)C(=C/C3=[N+](CCCCCC)c4ccc5ccccc5c4C3(C)C)/C2=O)C(C)(C)c2c1ccc1ccccc21.[I-]` ?
1110 nM
